Test system: panel of 48 cancer-derived cell lines
ASSAY REMARKS: Proliferation assay on diverse cancer cell line panel, CellTiter-Glo, 72 hours
Type: cell-based
CONDITION LABEL: COLO 205, Large intestine/Colorectum, 72 hours
READOUT: IC50
For clarity, give the value followed by its unit.

Query: Supply recorded IC50 for CN(C)CCNC(=O)c1ccc(-c2ccc(-c3ccc(Cl)cc3)n2-c2ccccc2C(F)(F)F)cc1 (single isomer, unassigned) [Atropisomer A-1] here.
Response: 6.75 µM

---

Tested on: panel of 48 cancer-derived cell lines
ASSAY REMARKS: Proliferation assay on diverse cancer cell line panel, CellTiter-Glo, 72 hours
Assay type: cell-based
CONDITION LABEL: U118 MG, Brain & Nerves, 72 hours
READOUT: pIC50
Remember, pIC50 is on a log scale: it is -log10 of the molar concentration.

Query: Supply recorded pIC50 for CN(C)CCNC(=O)c1ccc(-c2ccc(-c3ccc(Cl)cc3)n2-c2ccccc2C(F)(F)F)cc1 (single isomer, unassigned) [Atropisomer A-1] here.
Response: 5.12

---

Tested on: panel of 48 cancer-derived cell lines
ASSAY REMARKS: Proliferation assay on diverse cancer cell line panel, CellTiter-Glo, 72 hours
Type: cell-based
CONDITION LABEL: SW480, Large intestine/Colorectum, 72 hours
READOUT: IC50 (µM)
Lab book: enter the figure in µM, no units written.

Query: For panel of 48 cancer-derived cell lines, give the measured IC50 of the entry CN(C)CCNC(=O)c1ccc(-c2ccc(-c3ccc(Cl)cc3)n2-c2ccccc2C(F)(F)F)cc1 (single isomer, unassigned) [Atropisomer A-1]
Response: 7.55

---

Items are presented alongside their recorded Cmax.
ASSAY REMARKS: Mouse PK, plasma after i.v. and p.o. dosing (oral bioavailability)
Type: in vivo, Male CD-1 mice
CONDITION LABEL: mouse, 10 mg/kg; 10 mq/Kq PO, male CD-1 mice, plasma
Lab book: enter the figure in ng/mL, no units written.

COMPOUND: CN(C)CCNC(=O)c1ccc(-c2ccc(-c3ccc(Cl)cc3)n2-c2ccccc2C(F)(F)F)cc1 (single isomer, unassigned) [Atropisomer A-2]
Cmax (ng/mL): 265

Query: Supply recorded Cmax for CN(C)CCNC(=O)c1ccc(-c2ccc(-c3ccc(Cl)cc3)n2-c2ccccc2C(F)(F)F)nc1 (single isomer, unassigned) [Atropisomer A-3] here.
Response: 322

---

Tested on: panel of 48 cancer-derived cell lines
ASSAY REMARKS: Proliferation assay on diverse cancer cell line panel, CellTiter-Glo, 72 hours
Type: cell-based
CONDITION LABEL: KG-1, Blood/Leukaemia, 72 hours
Procedure: Screening against diverse cancer cell lines was performed to identify tumour types displaying sensitivity to atropisomers A-1 and A-2. A panel of 48 cancer-derived cell lines was screened in a high-throughput proliferation assay using dilutions of atropisomers A-1/A-2. […] IC50 values were calculated by fitting the dose-response data using a nonlinear regression model.
pIC50: −log10 of the molar value.
READOUT: pIC50

Query: Supply recorded pIC50 for CN(C)CCNC(=O)c1ccc(-c2ccc(-c3ccc(Cl)cc3)n2-c2ccccc2C(F)(F)F)cc1 (single isomer, unassigned) [Atropisomer A-1] here.
Response: < 5.00

---

System: panel of 48 cancer-derived cell lines
ASSAY REMARKS: Proliferation assay on diverse cancer cell line panel, CellTiter-Glo, 72 hours
Type: cell-based
CONDITION LABEL: Raji, Blood/Lymphoma, 72 hours
READOUT: IC50 (µM)
Lab book: enter the figure in µM, no units written.

Query: Supply recorded IC50 for CN(C)CCNC(=O)c1ccc(-c2ccc(-c3ccc(Cl)cc3)n2-c2ccccc2C(F)(F)F)cc1 (single isomer, unassigned) [Atropisomer A-1] here.
Response: 3.91

---

ASSAY REMARKS: Mouse PK, brain exposure after p.o. dosing
Format: in vivo, Male CD-1 mice
CONDITION LABEL: mouse, po; brain, p.o. 10 mg/kg, male CD-1 mice; read-out: AUClast brain
READOUT: AUC(0-t)
For clarity, give the value followed by its unit.

MOLECULE: CN(C)CCNC(=O)c1ccc(-c2ccc(-c3ccc(Cl)cc3)n2-c2ccccc2C(F)(F)F)nc1 (single isomer, unassigned) [Atropisomer A-3]
AUC(0-t): 14100 ng·h/mL

Proceeding to the next molecule to report its AUC(0-t).
Query: Supply recorded AUC(0-t) for CN(C)CCNC(=O)c1ccc(-c2ccc(-c3ccc(Cl)cc3)n2-c2ccccc2C(F)(F)F)cc1 (single isomer, unassigned) [Atropisomer A-2] here.
Response: 20500 ng·h/mL

---

ASSAY REMARKS: Mouse PK, plasma after i.v. and p.o. dosing (oral bioavailability)
Type: in vivo, Male CD-1 mice
CONDITION LABEL: mouse, 2 mg/kg; 2 mq/Kq IV, male CD-1 mice, plasma
READOUT: AUC(0-inf) (ng·h/mL)
Lab book: enter the figure in ng·h/mL, no units written.

Query: Supply recorded AUC(0-inf) for CN(C)CCNC(=O)c1ccc(-c2ccc(-c3ccc(Cl)cc3)n2-c2ccccc2C(F)(F)F)cc1 (single isomer, unassigned) [Atropisomer A-2] here.
Response: 1620

Query: Supply recorded AUC(0-inf) for CN(C)CCNC(=O)c1ccc(-c2ccc(-c3ccc(Cl)cc3)n2-c2ccccc2C(F)(F)F)nc1 (single isomer, unassigned) [Atropisomer A-3] here.
Response: 1990

---

System: panel of 48 cancer-derived cell lines
ASSAY REMARKS: Proliferation assay on diverse cancer cell line panel, CellTiter-Glo, 72 hours
Format: cell-based
CONDITION LABEL: GRANTA-519, Blood/Lymphoma, 72 hours
READOUT: pIC50
Remember, pIC50 is on a log scale: it is -log10 of the molar concentration.

Query: Supply recorded pIC50 for CN(C)CCNC(=O)c1ccc(-c2ccc(-c3ccc(Cl)cc3)n2-c2ccccc2C(F)(F)F)cc1 (single isomer, unassigned) [Atropisomer A-1] here.
Response: 5.13

---

Test system: panel of 48 cancer-derived cell lines
ASSAY REMARKS: Proliferation assay on diverse cancer cell line panel, CellTiter-Glo, 72 hours
Type: cell-based
CONDITION LABEL: ML-2, Blood/Leukaemia, 72 hours; listed as A-2
READOUT: IC50 (nM)
Lab book: enter the figure in nM, no units written.

Query: Supply recorded IC50 for CN(C)CCNC(=O)c1ccc(-c2ccc(-c3ccc(Cl)cc3)n2-c2ccccc2C(F)(F)F)cc1 (single isomer, unassigned) [Atropisomer A-2] here.
Response: 180
